RESULT TYPE: glass transition temperature (°C)

Record excerpt, results attached:
- COMPOUND: "*CC(C)(C)CS(=O)(=O)CC(C)(C)COC(=O)O* (repeat unit)"
  RESULT TYPE: "glass transition temperature"
  READOUT VALUE: 50.00
- COMPOUND: "*CCCCCCN(CC(F)(F)C(F)(F)C(F)(F)C(F)(F)C(F)(F)C(F)(F)C(F)(F)F)C(=O)CCCCC(=O)N(*)CC(F)(F)C(F)(F)C(F)(F)C(F)(F)C(F)(F)C(F)(F)C(F)(F)F (repeat unit)"
  RESULT TYPE: "glass transition temperature"
  READOUT VALUE: 119.40
- COMPOUND: "*O[Si](C)(C)c1ccc([Si](C)(C)Oc2c(C)cc(-c3cc(C)c(*)c(C)c3)cc2C)cc1 (repeat unit)"
  RESULT TYPE: "glass transition temperature"
  READOUT VALUE: 67.00
- COMPOUND: "*Oc1ccc(C2(c3ccc(OC(=O)CCC(*)=O)cc3)c3cc(OC)ccc3-c3ccc([N+](=O)[O-])cc32)cc1 (repeat unit)"
  RESULT TYPE: "glass transition temperature"
  READOUT VALUE: 230.00

[I] *Nc1cccc2c(NC(=O)c3ccc(NC(=O)c4ccc([Si](C)(C)c5ccc(C(=O)Nc6ccc(C(*)=O)cc6)cc5)cc4)cc3)cccc12 (repeat unit)
[II] *O[Si](C)(C)CCCNC(=O)C(=O)NCCC[Si](*)(C)C (repeat unit)
[III] *C1C(=O)N(c2ccc(O[Si](C)(C)C(C)(C)C)cc2)C(=O)C1* (repeat unit)
-- ask Rank the items in ascending order with respect to glass transition temperature. Reply format: the labels, ordered as requested.
-- reply II, III, I
(II: -46.48 °C, III: 169.00 °C, I: 378.00 °C)

###

RESULT TYPE: glass transition temperature (°C)

Record excerpt, results attached:
- COMPOUND: "*C(=O)Nc1ccc(Oc2ccc(Oc3ccc(NC(=O)c4ccc5c(c4)C(=O)N(c4ccc(Oc6ccc(C7(c8ccc(Oc9ccc(N%10C(=O)c%11ccc(*)cc%11C%10=O)cc9)cc8)CC8CC7C7CCCC87)cc6)cc4)C5=O)cc3)cc2)cc1 (repeat unit)"
  glass transition temperature, °C: 257.00
- COMPOUND: "*c1ccc(Sc2cc3c(cc2Sc2ccc(N4C(=O)c5ccc(Oc6ccc7c(c6)C(=O)N(*)C7=O)cc5C4=O)cc2)C(=O)N(c2ccc(CC)cc2)C3=O)cc1 (repeat unit)"
  glass transition temperature, °C: 271.00

[I] *CC(*)(CC(=O)OCCCCCCCCC)C(=O)OCCCCCCCCC (repeat unit)
[II] *C(=O)Nc1cc(NC(=O)c2ccc3[nH]c(-c4cccc(-c5nc6cc(*)ccc6[nH]5)c4)nc3c2)cc(-c2nc3ccccc3[nH]2)c1 (repeat unit)
[III] *O[Si](C)(C)O[Si](C)(C)O[Si](C)(C)O[Si](C)(C)c1cccc([Si](*)(C)C)c1 (repeat unit)
[IV] *CCCCOc1ccc(OC(=O)c2ccc(C(=O)Oc3ccc(O*)cc3)c(C(=O)OCC=C)c2)cc1 (repeat unit)
-- ask Ranking field: glass transition temperature; order: falling. Reply format: the labels, ordered as requested.
-- reply II, IV, I, III

###

RESULT TYPE: glass transition temperature (°C)

- COMPOUND: "*Oc1cccc(C(C)(C)c2ccc(Oc3ccc4c(c3)C(=O)N(c3ccc(Oc5ccc(N6C(=O)c7ccc(*)cc7C6=O)cc5)cc3)C4=O)cc2)c1 (repeat unit)"
  glass transition temperature / °C: 223.00
- COMPOUND: "*Oc1cccc(C(C)(C)c2ccc(Oc3cccc4c3C(=O)N(c3cccc(N5C(=O)c6cccc(*)c6C5=O)c3)C4=O)cc2)c1 (repeat unit)"
  glass transition temperature / °C: 236.00
- COMPOUND: "*Oc1ccc(C(C)(C)c2ccc(Cc3ccc4c(c3)C(=O)N(c3cccc(N5C(=O)c6ccc(*)cc6C5=O)c3)C4=O)cc2)cc1 (repeat unit)"
  glass transition temperature / °C: 215.00
- COMPOUND: "*Oc1c(F)c(F)c(Oc2c(F)c(F)c3c(c2F)C(=O)N(c2c(F)c(F)c(Oc4c(F)c(F)c(N5C(=O)c6c(F)c(*)c(F)c(F)c6C5=O)c(F)c4F)c(F)c2F)C3=O)c(F)c1F (repeat unit)"
  glass transition temperature / °C: 300.00
- COMPOUND: "*C(=O)c1ccc2c(c1)C(=O)N(c1cccc(C(=O)c3ccccc3N3C(=O)c4ccc(*)cc4C3=O)c1)C2=O (repeat unit)"
  glass transition temperature / °C: 259.00
